Hey, just so you know, these numbers are from patent US20220213181A1.

- System: T1, Human ANGPTL4(26-406)-FLAG-His6-Avi (human, UniProt Q9BY76 24-406, biotin on the C-terminal Avi tag (BirA) where the protein is immobilised)
- T1 construct: the text calls it 20 amino acids), then QP, ANGPTL4 26-406 and FLAG-His6-Avi; the signal peptide is left out here; also called full length human ANGPTL4; hANGPTL4
- T1 sequence: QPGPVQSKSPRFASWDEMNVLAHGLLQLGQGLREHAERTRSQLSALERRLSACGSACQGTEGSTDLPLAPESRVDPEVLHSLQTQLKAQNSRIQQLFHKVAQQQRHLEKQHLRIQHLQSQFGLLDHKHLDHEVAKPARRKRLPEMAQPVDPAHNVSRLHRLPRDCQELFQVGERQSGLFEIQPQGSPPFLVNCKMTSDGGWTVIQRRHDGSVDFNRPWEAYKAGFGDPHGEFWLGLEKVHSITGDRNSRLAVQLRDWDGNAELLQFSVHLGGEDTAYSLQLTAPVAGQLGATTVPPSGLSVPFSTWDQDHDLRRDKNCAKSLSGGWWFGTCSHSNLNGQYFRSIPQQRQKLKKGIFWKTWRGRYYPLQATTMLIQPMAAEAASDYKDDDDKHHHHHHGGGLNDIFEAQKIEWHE
- Test: Octet (ForteBio) kinetics, biotinylated antigen on streptavidin sensor, IgG in solution
Overview of reported Kd across a group of binders:

Binder	Kd [nM]
NEG313 (antibody, human IgG1, kappa, V domains shown, humanized, hIgG1/kappa, parental antibody 37P1) VH: QVQLVQSGAEVKKPGASVKVSCKASGYTFNNYWITWVRQAPGQGLEWMGDFYPGGGSTNYNAKLQGRVTLTVDTSTSTAYMELRSLRSDDTAVYYCARSPPQVAPFDYWGQGTLVTVSS VL: DIQMTQSPSSLSASVGDRVTITCQASDYIYHWLGWYQQKPGKAPKLLISGASGLETGVPSRFSGSGSGKDYTFTISSLQPEDIATYYCQQYWSTPWTFGQGTKLEIKR	0.04
NEG319 (antibody, human IgG1, kappa, V domains shown, humanized, hIgG1/kappa, parental antibody 14P18) VH: QVQLVQSGAEVKKPGASVKVSCKASGYTFTSFWITWVRQAPGQGLEWMGDIYPGGANTNYNEKLQGRVTLTVDTSTSTAYMELRSLRSDDTAVYYCARSPPQVGPFDYWGQGTLVTVSS VL: DIQMTQSPSSLSASVGDRVTITCQASEYIINWLAWYQQKPGKAPKLLISGATGLETGVPSRFSGSGSGKDYTFTISSLQPEDIATYYCQQYWSIPWTFGQGTKLEIKR	0.036
NEG310 (antibody, human IgG1, kappa, V domains shown, humanized, hIgG1/kappa, parental antibody 17B1) VH: QVQLVQSGAEVKKPGASVKVSCKASGYTFTSYTMHWVRQAPGQGLEWMGYINPSSGYTKYNQKFQGRVTMTADKSTSTAYMELSSLRSEDTAVYYCAEGWLLLAMDYWGQGTLVTVSS VL: EAVVTQSPATLSLSPGERATLSCRSSTGAVTTSNYAIWVQEKPGQAPRGLIGGTNNRAPGIPARFSGSLSGDDATLTISSLQPEDFAVYFCALWYSDHWVFGQGTKVEIKR	0.025
NEG315 (antibody, human IgG1, kappa, V domains shown, humanized, hIgG1/kappa, parental antibody 37P1) VH: QVQLVQSGAEVKKPGASVKVSCKASGYTFTNYWITWVRQAPGQGLEWMGDFYPGGGNTNYNAKLQGRVTLTVDTSTSTAYMELRSLRSDDTAVYYCARSPPQVAPFDYWGQGTLVTVSS VL: DIQMTQSPSSLSASVGDRVTITCQASEYIYNWLGWYQQKPGKAPKLLISGASGLETGVPSRFSGSGSGKDYTFTISSLQPEDIATYYCQQYWSTPWTFGQGTKLEIKR	0.029
